Test system: P388
Test: Percentage increase in life span was measured for P-388 cells […] after intraperitoneal administration of a dose of 30 mg/kg
Format: functional
Conditions: Mus musculus, P388, ip
reported metric: ILS at 30 mg/kg
Mention the unit after the number when you answer.

P388 data for COC(=O)Nc1ccc(Nc2c3ccccc3nc3ccccc23)cc1 ; its ILS at 30 mg/kg: 98%

Measured ILS at 30 mg/kg for this entry CNC(=O)Nc1ccc(Nc2c3ccccc3nc3ccccc23)cc1 on P388: 53%

Param item: CC(=O)Nc1ccc(Nc2c3ccccc3nc3ccccc23)cc1 ; param system: P388; output ILS at 30 mg/kg: 57%

// assay P388, entry O=P1(Nc2ccc(Nc3c4ccccc4nc4ccccc34)cc2)OCCO1 , ILS at 30 mg/kg value = 54%

I looked up O=P1(Nc2ccc(Nc3c4ccccc4nc4ccccc34)cc2)OCCCO1 and its ILS at 30 mg/kg for P388 was 47%

====

Record form. Attribute: Log K. Fill in for each entry.
System: Nucleic Acid
Assay: […] association constant for DNA binding to poly (dA.dT)
Type: nucleic-acid assay

Entry CCOP(=O)(Nc1ccc(Nc2c3ccccc3nc3ccccc23)cc1)OCC — recorded Log K = 6.47

The compound identified as CS(=O)(=O)Cc1ccc(Nc2c3ccccc3nc3ccccc23)cc1 registered its Log K at 5.76

// COc1cc(NP(=O)(OC)OC)ccc1Nc1c2ccccc2nc2ccccc12 : Log K value = 5.64

Reported Log K of O=P1(Nc2ccc(Nc3c4ccccc4nc4ccccc34)cc2)OCCCO1 : 6.78

For record COc1cc(NS(C)(=O)=O)ccc1Nc1c2ccccc2nc2ccccc12 [AMSACRINE] the listed Log K is 5.57

The compound COP(=O)(Cc1ccc(Nc2c3ccccc3nc3ccccc23)cc1)OC showed Log K equal to 5.67

Reported Log K of CNP(=O)(NC)Nc1ccc(Nc2c3ccccc3nc3ccccc23)cc1 : 6.84

Measured Log K of CP(C)(=O)Nc1ccc(Nc2c3ccccc3nc3ccccc23)cc1 : 6.81

The measured Log K associated with COP(=O)(Nc1cccc(Nc2c3ccccc3nc3ccccc23)c1)OC reads 5.66

response.value for COP(=O)(O)Nc1ccc(Nc2c3ccccc3nc3ccccc23)cc1 (field: Log K) = 5.37

Form field Log K, entry NP(=O)(O)Nc1ccc(Nc2c3ccccc3nc3ccccc23)cc1 : 4.83

compound COP(=O)(Nc1ccc(Nc2c3ccccc3nc3ccccc23)cc1)OC , Log K observed: 6.26

Lookup result for COP(=O)(NC(=O)c1ccc(Nc2c3ccccc3nc3ccccc23)cc1)OC ; measured Log K: 5.56

// recorded Log K for CN(C)P(=O)(Nc1ccc(Nc2c3ccccc3nc3ccccc23)cc1)N(C)C : 6.08

Measured Log K of O=P1(Nc2ccc(Nc3c4ccccc4nc4ccccc34)cc2)NCCCO1 (stereo unspecified) : 6.58

The reported Log K of the compound O=P1(Nc2ccc(Nc3c4ccccc4nc4ccccc34)cc2)OCCO1 was 6.52
